system: NCI-H1341 complex spheroids, percent test/control; experiment: Anticancer human tumor NCI-H1341 cell line growth inhibition [AhR]; settings: second compound 0.316 µM; first compound 0.316 µM; stronger effect = lower value;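 further: spheroids exposed to agents for seven days before readout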
Assign viability, T/C to each entry below.

[in] Need viability, T/C of O=C(C=Cc1cccc(S(=O)(=O)Nc2ccccc2)c1)NO + Cc1ccccc1N=Nc1ccc(NC(=O)c2ccnn2C)c(C)c1 , thanks.
[out] 54.7%

[in] What do you get for COc1cccc2c1C(=O)c1c(O)c3c(c(O)c1C2=O)CC(O)(C(=O)CO)CC3OC1CC(N)C(O)C(C)O1 (stereo not given) + Cc1ccccc1N=Nc1ccc(NC(=O)c2ccnn2C)c(C)c1 ?
[out] 38.2%

[in] Same lookup for COc1cc(Nc2ncc3c(n2)-c2ccc(Cl)cc2C(c2c(F)cccc2OC)=NC3)ccc1C(=O)O + CC(CO)NC(=O)c1cc(-c2ccc(Cl)cc2)nn(-c2cnn(C)c2)c1=O , please.
[out] 35.5%

[in] Thanks! And NS(=O)(=O)OCC1CC(n2ccc3c(NC4CCc5ccccc54)ncnc32)CC1O (stereo not given) + Cc1cncc(-c2nc(NCCc3c[nH]c4ccccc34)c3ncn(C(C)C)c3n2)c1 ?
[out] 34.8%

[in] Let us now turn to CC1(C)CCC(CN2CCN(c3ccc(C(=O)NS(=O)(=O)c4ccc(NCC5CCOCC5)c([N+](=O)[O-])c4)c(Oc4cnc5[nH]ccc5c4)c3)CC2)=C(c2ccc(Cl)cc2)C1 + Cc1cncc(-c2nc(NCCc3c[nH]c4ccccc34)c3ncn(C(C)C)c3n2)c1
[out] 71.3%

---

test system: NCI-H1341 complex spheroids, percent test/control; assay: Anticancer human tumor NCI-H1341 cell line growth inhibition [AhR]; details: second compound 0.316 µM; first compound 0.0316 µM; stronger effect = lower value;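 further: spheroids exposed to agents for seven days before readout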
property_label: viability, T/C (%)
Give just the numeric value; % need not be written.

[in] Find viability, T/C (NCI-H1341 complex spheroids, percent test/control) for the entry COc1cccc2c1C(=O)c1c(O)c3c(c(O)c1C2=O)CC(O)(C(=O)CO)CC3OC1CC(N)C(O)C(C)O1 (stereo not given) + Cc1ccccc1N=Nc1ccc(NC(=O)c2ccnn2C)c(C)c1
[out] 50

[in] Same read-out for CC[C@@]1(O)C(=O)OCc2c1cc1n(c2=O)Cc2cc3c(CN(C)C)c(O)ccc3nc2-1 + Cc1ccccc1N=Nc1ccc(NC(=O)c2ccnn2C)c(C)c1 ?
[out] 49.9

[in] Thanks! And COc1ccc([C@@H](O)c2cc(-c3ncnc4cc(N5CCOCC5)ccc34)c(F)cc2Cl)nn1 + CC(CO)NC(=O)c1cc(-c2ccc(Cl)cc2)nn(-c2cnn(C)c2)c1=O ?
[out] 88

[in] Likewise for COc1cccc2c1C(=O)c1c(O)c3c(c(O)c1C2=O)CC(O)(C(=O)CO)CC3OC1CC(N)C(O)C(C)O1 (stereo not given) + CC(CO)NC(=O)c1cc(-c2ccc(Cl)cc2)nn(-c2cnn(C)c2)c1=O ?
[out] 51.3

[in] And what about the molecule COc1cccc2c1C(=O)c1c(O)c3c(c(O)c1C2=O)CC(O)(C(=O)CO)CC3OC1CC(N)C(O)C(C)O1 (stereo not given) + Cc1cncc(-c2nc(NCCc3c[nH]c4ccccc34)c3ncn(C(C)C)c3n2)c1 ?
[out] 43.4

---

system: NCI-H1341 complex spheroids, percent test/control; assay: Anticancer human tumor NCI-H1341 cell line growth inhibition [AhR]; conditions: second compound 0.316 µM; first compound 0.0316 µM; stronger effect = lower value;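 further: spheroids exposed to agents for seven days before readout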
property_label: viability, T/C (%)
Please respond with the number in % and leave the unit unwritten.

[in] What does the data say about its viability, T/C? Entry: COc1ccc([C@@H](O)c2cc(-c3ncnc4cc(N5CCOCC5)ccc34)c(F)cc2Cl)nn1 + Cc1ccccc1N=Nc1ccc(NC(=O)c2ccnn2C)c(C)c1
[out] 87.2

[in] Thanks! And O=C(c1cc(Cc2n[nH]c(=O)c3ccccc23)ccc1F)N1CCN(C(=O)C2CC2)CC1 + CC(CO)NC(=O)c1cc(-c2ccc(Cl)cc2)nn(-c2cnn(C)c2)c1=O ?
[out] 96.1

[in] Also need O=C(C=Cc1cccc(S(=O)(=O)Nc2ccccc2)c1)NO + Cc1ccccc1N=Nc1ccc(NC(=O)c2ccnn2C)c(C)c1 , thanks.
[out] 94.8

[in] Please do the same for Nc1ccn(C2OC(CO)C(O)C2(F)F)c(=O)n1 (centres undefined) + Cc1cncc(-c2nc(NCCc3c[nH]c4ccccc34)c3ncn(C(C)C)c3n2)c1 as well.
[out] 30.6

---

tested on: NCI-H1341 complex spheroids, percent test/control; assay: Anticancer human tumor NCI-H1341 cell line growth inhibition [AhR]; conditions: curve of first compound; second compound 10 µM;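 further: spheroids exposed to agents for seven days before readout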
pIC50: −log10 of the molar value.
property_label: pIC50

[in] Please look up its pIC50: Nc1ccccc1NC(=O)c1ccc(CNC(=O)OCc2cccnc2)cc1 + Cc1ccccc1N=Nc1ccc(NC(=O)c2ccnn2C)c(C)c1
[out] 6.42

[in] Try this compound too: CC(C)CC(NC(=O)C(Cc1ccccc1)NC(=O)c1cnccn1)B(O)O (centres undefined) + Cc1cncc(-c2nc(NCCc3c[nH]c4ccccc34)c3ncn(C(C)C)c3n2)c1
[out] > 9.02

[in] Param item: O=C(c1cc(Cc2n[nH]c(=O)c3ccccc23)ccc1F)N1CCN(C(=O)C2CC2)CC1 + Cc1ccccc1N=Nc1ccc(NC(=O)c2ccnn2C)c(C)c1
[out] < 5.00

[in] Query CC(C)CC(NC(=O)C(Cc1ccccc1)NC(=O)c1cnccn1)B(O)O (centres undefined) + Cc1ccccc1N=Nc1ccc(NC(=O)c2ccnn2C)c(C)c1 next
[out] 8.46

[in] Continue with Nc1ncn(C2CC(O)C(CO)S2)c(=O)n1 (centres undefined) + Cc1cncc(-c2nc(NCCc3c[nH]c4ccccc34)c3ncn(C(C)C)c3n2)c1
[out] > 9.02

[in] Subsequent entry: CC[C@@]1(O)C(=O)OCc2c1cc1n(c2=O)Cc2cc3c(CN(C)C)c(O)ccc3nc2-1 + Cc1cncc(-c2nc(NCCc3c[nH]c4ccccc34)c3ncn(C(C)C)c3n2)c1
[out] > 9.50

[in] Same read-out for O=C(C=Cc1cccc(S(=O)(=O)Nc2ccccc2)c1)NO + CC(CO)NC(=O)c1cc(-c2ccc(Cl)cc2)nn(-c2cnn(C)c2)c1=O ?
[out] 6.79

[in] What would you report for CCN(c1cc(-c2ccc(CN3CCOCC3)cc2)cc(C(=O)NCc2c(C)cc(C)[nH]c2=O)c1C)C1CCOCC1 + Cc1cncc(-c2nc(NCCc3c[nH]c4ccccc34)c3ncn(C(C)C)c3n2)c1 ?
[out] > 8.02

[in] For O=C(c1cc(Cc2n[nH]c(=O)c3ccccc23)ccc1F)N1CCN(C(=O)C2CC2)CC1 + Cc1cncc(-c2nc(NCCc3c[nH]c4ccccc34)c3ncn(C(C)C)c3n2)c1 then?
[out] > 7.50

[in] # iterate: CC(C)c1c(-c2ccccc2)nc2c(C#N)c[nH]n2c1=O + Cc1cncc(-c2nc(NCCc3c[nH]c4ccccc34)c3ncn(C(C)C)c3n2)c1
[out] > 7.50

[in] Check CC(C)CC(NC(=O)C(Cc1ccccc1)NC(=O)c1cnccn1)B(O)O (centres undefined) + CC(CO)NC(=O)c1cc(-c2ccc(Cl)cc2)nn(-c2cnn(C)c2)c1=O too.
[out] 8.42

[in] Then this compound: COc1ccc([C@@H](O)c2cc(-c3ncnc4cc(N5CCOCC5)ccc34)c(F)cc2Cl)nn1 + CC(CO)NC(=O)c1cc(-c2ccc(Cl)cc2)nn(-c2cnn(C)c2)c1=O
[out] 6.16

[in] Item: COc1ccc([C@@H](O)c2cc(-c3ncnc4cc(N5CCOCC5)ccc34)c(F)cc2Cl)nn1 + Cc1cncc(-c2nc(NCCc3c[nH]c4ccccc34)c3ncn(C(C)C)c3n2)c1
[out] > 7.50

[in] Same read-out for O=C(C=Cn1cnc(-c2cc(C(F)(F)F)cc(C(F)(F)F)c2)n1)NNc1cnccn1 + Cc1cncc(-c2nc(NCCc3c[nH]c4ccccc34)c3ncn(C(C)C)c3n2)c1 ?
[out] > 8.02

[in] Next: COc1cc(C2c3cc4c(cc3C(OC3OC5COC(C)OC5C(O)C3O)C3COC(=O)C23)OCO4)cc(OC)c1O (centres undefined) + Cc1cncc(-c2nc(NCCc3c[nH]c4ccccc34)c3ncn(C(C)C)c3n2)c1
[out] > 7.50

[in] Can you handle CC1COCCN1c1cc(-c2ccnn2C)c2ccnc(-c3ccn[nH]3)c2n1 (centres undefined) + CC(CO)NC(=O)c1cc(-c2ccc(Cl)cc2)nn(-c2cnn(C)c2)c1=O next?
[out] 7.77

[in] Would you mind doing COc1cc(C2c3cc4c(cc3C(OC3OC5COC(C)OC5C(O)C3O)C3COC(=O)C23)OCO4)cc(OC)c1O (centres undefined) + Cc1ccccc1N=Nc1ccc(NC(=O)c2ccnn2C)c(C)c1 as well?
[out] > 7.50

[in] Again, but for Nc1ncn(C2CC(O)C(CO)S2)c(=O)n1 (centres undefined) + Cc1ccccc1N=Nc1ccc(NC(=O)c2ccnn2C)c(C)c1
[out] 7.76

[in] Now this one: CC(C)c1c(-c2ccccc2)nc2c(C#N)c[nH]n2c1=O + CC(CO)NC(=O)c1cc(-c2ccc(Cl)cc2)nn(-c2cnn(C)c2)c1=O
[out] < 5.00

[in] Here is the next compound: COc1cccc2c1C(=O)c1c(O)c3c(c(O)c1C2=O)CC(O)(C(=O)CO)CC3OC1CC(N)C(O)C(C)O1 (centres undefined) + Cc1cncc(-c2nc(NCCc3c[nH]c4ccccc34)c3ncn(C(C)C)c3n2)c1
[out] > 7.50

[in] Input COc1cccc2c1C(=O)c1c(O)c3c(c(O)c1C2=O)CC(O)(C(=O)CO)CC3OC1CC(N)C(O)C(C)O1 (centres undefined) + Cc1ccccc1N=Nc1ccc(NC(=O)c2ccnn2C)c(C)c1
[out] > 7.50

[in] Similarly, Nc1ccn(C2OC(CO)C(O)C2(F)F)c(=O)n1 (centres undefined) + Cc1cncc(-c2nc(NCCc3c[nH]c4ccccc34)c3ncn(C(C)C)c3n2)c1 ?
[out] > 7.50

[in] Entry to check: COc1cccc2c1C(=O)c1c(O)c3c(c(O)c1C2=O)CC(O)(C(=O)CO)CC3OC1CC(N)C(O)C(C)O1 (centres undefined) + CC(CO)NC(=O)c1cc(-c2ccc(Cl)cc2)nn(-c2cnn(C)c2)c1=O
[out] > 7.50

[in] Please give the result for Nc1ccn(C2OC(CO)C(O)C2(F)F)c(=O)n1 (centres undefined) + CC(CO)NC(=O)c1cc(-c2ccc(Cl)cc2)nn(-c2cnn(C)c2)c1=O too.
[out] > 7.50
